ASSAY EXPLANATION: Pharmacokinetic I.V. study in rat
Assay type: in vivo, Sprague Dawley rats
ASSAY CONDITIONS: Sprague-Dawley, whole blood, iv, 7.8 mg/kg, 7.8 mpk IV, HCl salt, 120 min, animals A, B, C, read-out: blood conc
ENDPOINT LABEL: concentration at 120 min (µM)

1. CC(C)n1nccc1-c1ncccc1COc1cccc(O)c1C=O	263

###

ASSAY EXPLANATION: Pharmacokinetic oral study in rat
Assay type: in vivo, SD Rats
ASSAY CONDITIONS: Sprague-Dawley, whole blood, PO 100 mg/kg, Blood
ENDPOINT LABEL: Tmax (h)

1) CC(C)n1nccc1-c1ncccc1COc1cccc(O)c1C=O	12

###

ASSAY EXPLANATION: Pharmacokinetic I.V. study in rat
Format: in vivo, Sprague Dawley rats
ASSAY CONDITIONS: Sprague-Dawley, whole blood, iv, 7.8 mg/kg, 7.8 mpk IV, HCl salt, 30 min, animals A, B, C, read-out: blood conc
ENDPOINT LABEL: concentration at 30 min (µM)

1. CC(C)n1nccc1-c1ncccc1COc1cccc(O)c1C=O	283

###

ASSAY EXPLANATION: Pharmacokinetic oral study in rat
Format: in vivo, SD Rats
ASSAY CONDITIONS: Sprague-Dawley, whole blood, PO 100 mg/kg, Blood
ENDPOINT LABEL: Cmax (µM)

1. CC(C)n1nccc1-c1ncccc1COc1cccc(O)c1C=O	1100

###

ASSAY EXPLANATION: Pharmacokinetic I.V. study in rat
Format: in vivo, Sprague Dawley rats
ASSAY CONDITIONS: Sprague-Dawley, whole blood, iv, 7.8 mg/kg, 7.8 mpk IV, HCl salt, 240 min, animals A, B, C, read-out: blood conc
ENDPOINT LABEL: concentration at 240 min (µM)

1) CC(C)n1nccc1-c1ncccc1COc1cccc(O)c1C=O [Compound 43]	248

###

ASSAY EXPLANATION: Pharmacokinetic I.V. study in rat
Format: in vivo, Sprague Dawley rats
ASSAY CONDITIONS: Sprague-Dawley, whole blood, iv, 7.8 mg/kg, 7.8 mpk IV, HCl salt, 5 min, animals A, B, C, read-out: blood conc
ENDPOINT LABEL: concentration at 5 min (µM)

1. CC(C)n1nccc1-c1ncccc1COc1cccc(O)c1C=O	259

###

ASSAY EXPLANATION: Pharmacokinetic oral study in rat
Format: in vivo, SD Rats
ASSAY CONDITIONS: Sprague-Dawley, whole blood, PO 44 mg/kg, Blood
ENDPOINT LABEL: Tmax (h)

1. CC(C)n1nccc1-c1ncccc1COc1cccc(O)c1C=O	5.33

###

ASSAY EXPLANATION: Pharmacokinetic I.V. study in rat
Type: in vivo, Sprague Dawley rats
ASSAY CONDITIONS: Sprague-Dawley, plasma, iv, 7.8 mg/kg, 7.8 mpk IV, HCl salt, 30 min, animals A, B, C, read-out: plasma conc
ENDPOINT LABEL: concentration at 30 min (µM)

1) CC(C)n1nccc1-c1ncccc1COc1cccc(O)c1C=O [Compound 43]	8.66

###

ASSAY EXPLANATION: Pharmacokinetic I.V. study in rat
Type: in vivo, Sprague Dawley rats
ASSAY CONDITIONS: Sprague-Dawley, 7.8 mg/kg, 7.8 mpk IV, Plasma, read-out: t½ beta
ENDPOINT LABEL: half-life (h)

1. CC(C)n1nccc1-c1ncccc1COc1cccc(O)c1C=O	10.3

###

ASSAY EXPLANATION: Pharmacokinetic oral study in rat
Assay type: in vivo, SD Rats
ASSAY CONDITIONS: Sprague-Dawley, PO 44 mg/kg, Plasma
ENDPOINT LABEL: Tmax (h)

1. CC(C)n1nccc1-c1ncccc1COc1cccc(O)c1C=O	3.33

###

ASSAY EXPLANATION: Pharmacokinetic I.V. study in rat
Format: in vivo, Sprague Dawley rats
ASSAY CONDITIONS: Sprague-Dawley, whole blood, iv, 7.8 mg/kg, 7.8 mpk IV, HCl salt, 60 min, animals A, B, C, read-out: blood conc
ENDPOINT LABEL: concentration at 60 min (µM)

1. CC(C)n1nccc1-c1ncccc1COc1cccc(O)c1C=O [Compound 43]	256

###

ASSAY EXPLANATION: Pharmacokinetic oral study in rat
Assay type: in vivo, SD Rats
ASSAY CONDITIONS: Sprague-Dawley, PO 100 mg/kg, Plasma
ENDPOINT LABEL: Tmax (h)

1) CC(C)n1nccc1-c1ncccc1COc1cccc(O)c1C=O	11.3

###

ASSAY EXPLANATION: Pharmacokinetic I.V. study in rat
Format: in vivo, Sprague Dawley rats
ASSAY CONDITIONS: Sprague-Dawley, plasma, iv, 7.8 mg/kg, 7.8 mpk IV, HCl salt, 120 min, animals A, B, C, read-out: plasma conc
ENDPOINT LABEL: concentration at 120 min (µM)

1) CC(C)n1nccc1-c1ncccc1COc1cccc(O)c1C=O	3.92

###

ASSAY EXPLANATION: Pharmacokinetic I.V. study in rat
Type: in vivo, Sprague Dawley rats
ASSAY CONDITIONS: Sprague-Dawley, 7.8 mg/kg, 7.8 mpk IV, Plasma, read-out: Vss
ENDPOINT LABEL: Vd (L/kg)

1) CC(C)n1nccc1-c1ncccc1COc1cccc(O)c1C=O	4.11

###

ASSAY EXPLANATION: Pharmacokinetic I.V. study in rat
Assay type: in vivo, Sprague Dawley rats
ASSAY CONDITIONS: Sprague-Dawley, whole blood, 7.8 mg/kg, 7.8 mpk IV, Blood, read-out: Vss
ENDPOINT LABEL: Vd (L/kg)

1. CC(C)n1nccc1-c1ncccc1COc1cccc(O)c1C=O [Compound 43]	0.09

###

ASSAY EXPLANATION: Pharmacokinetic I.V. study in rat
Type: in vivo, Sprague Dawley rats
ASSAY CONDITIONS: Sprague-Dawley, whole blood, iv, 7.8 mg/kg, 7.8 mpk IV, HCl salt, 1440 min, animals A, B, C, read-out: blood conc
ENDPOINT LABEL: concentration at 1440 min

1) CC(C)n1nccc1-c1ncccc1COc1cccc(O)c1C=O [Compound 43]	81.1 µM

###

ASSAY EXPLANATION: Pharmacokinetic oral study in rat
Format: in vivo, SD Rats
ASSAY CONDITIONS: Sprague-Dawley, PO 100 mg/kg, Plasma
ENDPOINT LABEL: Cmax (µM)

1) CC(C)n1nccc1-c1ncccc1COc1cccc(O)c1C=O	44.5

###

ASSAY EXPLANATION: Pharmacokinetic I.V. study in rat
Type: in vivo, Sprague Dawley rats
ASSAY CONDITIONS: Sprague-Dawley, plasma, iv, 7.8 mg/kg, 7.8 mpk IV, HCl salt, 240 min, animals A, B, C, read-out: plasma conc
ENDPOINT LABEL: concentration at 240 min (µM)

1. CC(C)n1nccc1-c1ncccc1COc1cccc(O)c1C=O [Compound 43]	3.72
